Assay: Monomer content of pH adjusted aqueous solutions (LC-UV)
Format: physicochemical
Conditions: 100 mg/mL aqueous salt solution, pH adjusted to 7.6 to 8, LC-UV
endpoint: % Monomer in 100 mg/mL salt solution (%)

chemical_smiles=CSCC(=O)N[C@H]1Cc2ccc(F)c(C(=O)O)c2OB1O value_units=% result_number=96.4
chemical_smiles=COc1ccc2c(c1C(=O)O)OB(O)[C@@H](NC(=O)CSC)C2 value_units=% result_number=96.5
chemical_smiles=COc1ccc2c(c1C(=O)O)OB(O)[C@@H](NC(=O)Cc1cccs1)C2 value_units=% result_number=67.0
chemical_smiles=O=C(Cc1cccs1)N[C@H]1Cc2ccc(F)c(C(=O)O)c2OB1O value_units=% result_number=87.6
